# test system: T1, recombinant human IL-31 (hIL-31, BHK produced, A1277F, zcytor17lig CEE) (human, UniProt Q6EBC2 24-164)
# T1 construct: also called recombinant hIL-31
# T1 sequence: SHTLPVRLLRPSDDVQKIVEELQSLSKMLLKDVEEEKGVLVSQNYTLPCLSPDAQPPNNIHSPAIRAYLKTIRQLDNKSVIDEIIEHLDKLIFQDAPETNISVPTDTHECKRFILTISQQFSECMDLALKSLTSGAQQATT
# assay protocol: SPR (Biacore), mAb amine-coupled to CM5 chip, hIL-31 injected
# key: entry, value: koff
Respond numerically; units are s⁻¹ and should not be typed.

# binder, koff / s⁻¹
measured = [
    ("humanized 292.12.3.1 construct clone 13 (12VH1-gly + HC(F29L, M69L, R71A, T73K, V78A) + LC(fback)) (antibody, human IgG4, V domains shown) VH: QVQLVQSGAEVKKPGASVKVSCKASGYTLTRYWMQWVRQAPGQGLEWMGAIYPGDGDTRYSQKFQGRVTLTADKSISTAYMELSSLRSEDTAVYYCARPDGYYAAPYGMDYWGQGTLVTVSS VL: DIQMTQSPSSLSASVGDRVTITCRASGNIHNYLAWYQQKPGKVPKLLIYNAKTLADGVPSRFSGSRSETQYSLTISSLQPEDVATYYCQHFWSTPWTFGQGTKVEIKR", 0.003),
]

Now consider the entry below.
Quick one: koff of humanized 292.12.3.1 construct clone 18 (12VH1-gly + HC(fback) + LC(G66R, G68E, F71Y)) (antibody, human IgG4, V domains shown) VH: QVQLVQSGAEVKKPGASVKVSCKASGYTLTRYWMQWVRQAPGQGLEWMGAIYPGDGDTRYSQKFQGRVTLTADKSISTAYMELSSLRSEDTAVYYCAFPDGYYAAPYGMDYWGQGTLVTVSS VL: DIQMTQSPSSLSASVGDRVTITCRASGNIHNYLAWYQQKPGKVPKLLIYNAKTLADGVPSRFSGSRSETDYTLTISSLQPEDVATYYCQHFWSTPWTFGQGTKVEIKR ?
6.2e-05
